- STUDY_SYSTEM: Neuronal acetylcholine receptor subunit alpha-7 (Rattus norvegicus, UniProt Q05941)
- Sequence (Q05941 whole entry): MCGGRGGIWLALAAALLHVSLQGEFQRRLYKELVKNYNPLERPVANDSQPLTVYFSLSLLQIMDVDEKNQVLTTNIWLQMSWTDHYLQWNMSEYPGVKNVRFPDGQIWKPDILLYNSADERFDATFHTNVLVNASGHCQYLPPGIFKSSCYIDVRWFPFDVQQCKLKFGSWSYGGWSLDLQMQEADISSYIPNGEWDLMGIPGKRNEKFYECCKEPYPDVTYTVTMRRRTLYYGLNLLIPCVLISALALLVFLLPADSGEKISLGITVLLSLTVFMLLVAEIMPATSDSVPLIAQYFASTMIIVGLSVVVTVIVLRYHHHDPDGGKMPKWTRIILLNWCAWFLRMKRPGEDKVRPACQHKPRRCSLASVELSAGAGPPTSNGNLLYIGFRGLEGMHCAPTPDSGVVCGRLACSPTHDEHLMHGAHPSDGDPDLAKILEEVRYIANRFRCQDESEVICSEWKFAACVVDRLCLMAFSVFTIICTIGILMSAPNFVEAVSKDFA
- ASSAY_NOTES: Displacement of [125I]-alpha-bungarotoxin from alpha7 nAChR in rat hippocampus membranes
pKi: −log10 of the molar value.
PROPERTY_NAME: pKi

| TEST_SMILES | PROPERTY_NAME | OBS_VALUE |
| --- | --- | --- |
| CN(C)C[C@H]1CNC(=O)O1 | pKi | 4.39 |
| CN(C)C[C@H]1CN(C)C(=O)O1 | pKi | 3.80 |
| CN1CCC[C@H]1COC(N)=O | pKi | 4.11 |
| CN(C)C[C@@H]1CN(C)C(=O)O1 | pKi | 3.35 |
| CN1CCC[C@H]1[C@H]1COC(=O)N1 | pKi | 4.30 |
| CN1CCC[C@H]1[C@@H]1COC(=O)N1 | pKi | 4.19 |
| C[N+](C)(C)C[C@H]1CNC(=O)O1 | pKi | 4.33 |
| C[N+]1(C)CCC[C@H]1COC(N)=O | pKi | 5.74 |
| CN1C[C@@H](C[N+](C)(C)C)OC1=O | pKi | 4.52 |
| CN(C)C[C@@H]1CNC(=O)O1 | pKi | 4.03 |
| CN1C[C@H](C[N+](C)(C)C)OC1=O | pKi | 4.73 |
| C[N+](C)(C)C[C@@H]1CNC(=O)O1 | pKi | 4.35 |

* * *

- STUDY_SYSTEM: Neuronal acetylcholine receptor; alpha4/beta2 (Rattus norvegicus, UniProt P09483+P12390)
- Sequence (P09483 whole entry): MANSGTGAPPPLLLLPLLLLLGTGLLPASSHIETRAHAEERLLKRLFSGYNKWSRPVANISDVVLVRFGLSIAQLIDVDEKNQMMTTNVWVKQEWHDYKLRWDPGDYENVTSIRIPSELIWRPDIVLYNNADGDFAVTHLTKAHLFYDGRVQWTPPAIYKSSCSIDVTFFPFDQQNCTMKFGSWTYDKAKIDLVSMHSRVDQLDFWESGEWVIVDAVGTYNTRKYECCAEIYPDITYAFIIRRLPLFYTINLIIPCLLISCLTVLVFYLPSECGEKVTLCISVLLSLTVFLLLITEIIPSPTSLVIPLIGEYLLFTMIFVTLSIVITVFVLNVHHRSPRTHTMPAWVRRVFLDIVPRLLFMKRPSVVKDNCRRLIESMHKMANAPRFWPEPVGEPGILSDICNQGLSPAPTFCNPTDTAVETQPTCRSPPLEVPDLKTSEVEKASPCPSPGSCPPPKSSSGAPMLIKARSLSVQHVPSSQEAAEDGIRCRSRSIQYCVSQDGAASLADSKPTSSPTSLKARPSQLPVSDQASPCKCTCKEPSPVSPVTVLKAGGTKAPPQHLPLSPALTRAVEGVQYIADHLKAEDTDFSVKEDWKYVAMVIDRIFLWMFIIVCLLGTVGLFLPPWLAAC
- Sequence (P12390 whole entry): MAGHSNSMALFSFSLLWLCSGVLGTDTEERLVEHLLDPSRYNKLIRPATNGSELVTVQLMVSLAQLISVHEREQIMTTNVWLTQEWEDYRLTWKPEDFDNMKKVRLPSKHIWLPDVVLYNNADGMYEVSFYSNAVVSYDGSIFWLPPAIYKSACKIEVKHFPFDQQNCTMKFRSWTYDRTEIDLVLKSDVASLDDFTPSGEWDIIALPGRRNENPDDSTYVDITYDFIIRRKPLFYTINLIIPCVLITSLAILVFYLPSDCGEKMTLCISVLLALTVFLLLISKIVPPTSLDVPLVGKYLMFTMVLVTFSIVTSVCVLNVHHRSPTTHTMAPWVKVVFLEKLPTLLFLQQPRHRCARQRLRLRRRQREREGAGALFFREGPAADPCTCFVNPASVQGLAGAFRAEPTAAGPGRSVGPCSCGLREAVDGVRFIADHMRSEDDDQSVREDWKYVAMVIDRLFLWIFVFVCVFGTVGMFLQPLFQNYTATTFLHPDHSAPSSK
- ASSAY_NOTES: Displacement of [3H]-epibatidine from alpha4beta2 nAChR in rat cortex hippocampus
Kindly apply the following: 1 (yes) if Ki is less than 1 µM, 0 (no) in every other case.

| TEST_SMILES | ASSIGNED_LABEL |
| --- | --- |
| C[N+]1(C)CCC[C@H]1COC(N)=O | 0 (no) |
| C[N+](C)(C)C[C@@H]1CNC(=O)O1 | 1 (yes) |
| CN1CCC[C@H]1[C@@H]1COC(=O)N1 | 0 (no) |
| C[N+](C)(C)C[C@H]1CNC(=O)O1 | 1 (yes) |
| CN1C[C@H](C[N+](C)(C)C)OC1=O | 0 (no) |
| CN(C)C[C@@H]1CNC(=O)O1 | 1 (yes) |
| CN(C)C[C@H]1CNC(=O)O1 | 1 (yes) |
| CN(C)C[C@@H]1CN(C)C(=O)O1 | 0 (no) |
| CN1CCC[C@H]1[C@H]1COC(=O)N1 | 0 (no) |
| CN1C[C@@H](C[N+](C)(C)C)OC1=O | 0 (no) |
| CN(C)C[C@H]1CN(C)C(=O)O1 | 0 (no) |
| CN1CCC[C@H]1COC(N)=O | 1 (yes) |

* * *

- STUDY_SYSTEM: Muscarinic acetylcholine receptor
- ASSAY_NOTES: Binding affinity to muscarinic M1/M5 receptor (unknown origin)
- Format: protein assay, Homo sapiens
// reported Ki per item

| MOLECULE | Ki (nM) |
| --- | --- |
| CNC(=O)OCC[N+](C)(C)C | 150 |
| CN(C)C(=O)OCC[N+](C)(C)C | 1200 |
| CN(C)CCOC(=O)N(C)C [2-(DIMETHYLAMINO)ETHYL DIMETHYLCARBAMATE] | 18000 |
| CC(C[N+](C)(C)C)OC(N)=O (centres undefined) [BETHANECHOL] | 97 |
